Taken from ChEMBL document CHEMBL4513216.

Test system: Plasmodium berghei
Assay: Screen against P. berghei liver stage (PbLuc), transformed with Luciferase, at 10uM
Type: functional, HepG2
Details: tested at 10 uM
The whole screen tested about 69,000 compounds, of which about 8,600 (12%) showed an effect of 50% or more. This excerpt belongs to a sample that is enriched for strong results.
measure.name: INHIBITION

{"compound": "CCc1ncc(C(=O)N(C)C2Cc3ccccc3C2)cn1", "reported.measurement": "-98.6%"}
{"compound": "CN(Cc1ccc2c(c1)OCCO2)c1ncc(S(N)(=O)=O)s1", "reported.measurement": "54.4%"}
{"compound": "O=C(Cn1c(=O)oc2ccccc21)N1Cc2cnn(CCO)c2C1", "reported.measurement": "13.7%"}
{"compound": "CC(C)c1nnc(CN2CCN(C(C)c3nc(C4CC4)no3)CC2)o1 (configuration not stated)", "reported.measurement": "33.3%"}
{"compound": "COc1ccc(OC)c(CN(C)c2ncc(S(N)(=O)=O)s2)c1", "reported.measurement": "-54.4%"}
{"compound": "CCOc1ccc(C(=O)N2Cc3cnc(CC)nc3C2)o1", "reported.measurement": "-6.83%"}
{"compound": "CN(c1ncc(S(N)(=O)=O)s1)C1CCc2ccccc2C1 (configuration not stated)", "reported.measurement": "65.6%"}
{"compound": "CCN(Cc1ccoc1)c1ncc(S(N)(=O)=O)s1", "reported.measurement": "20.8%"}
{"compound": "CC(C)N(C)S(=O)(=O)c1ccc2c(c1)CCN(C(=O)c1cnccn1)C2", "reported.measurement": "28.8%"}
{"compound": "CCOc1ccc(Cl)cc1CCNC(=O)c1ccc(=O)n(C)c1", "reported.measurement": "-10.8%"}
{"compound": "CC(=O)N(Cc1noc(C)n1)C1CCN(Cc2cccc(C#N)c2)C1 (configuration not stated)", "reported.measurement": "-18%"}
{"compound": "Cc1c(CC(=O)N2CCSCC2)nnn1-c1cccc(Cl)c1", "reported.measurement": "3.46%"}
{"compound": "CCCc1nnsc1C(=O)N1CCN(CC(O)c2ccco2)CC1 (configuration not stated)", "reported.measurement": "7.85%"}
{"compound": "O=C(O)c1ccc(C2CCCN(Cc3ccc(-c4cc[nH]n4)o3)C2)cc1 (configuration not stated)", "reported.measurement": "-10.4%"}
{"compound": "O=C(C1CCCCC1)N1CCC2(CCCN2CC2CC2)CC1", "reported.measurement": "50.7%"}
{"compound": "O=C(NCC(O)Cc1ccccc1)c1ccc2[nH]c(=O)[nH]c2c1 (configuration not stated)", "reported.measurement": "43.9%"}
{"compound": "CC(=O)c1c(C)nn(CC(=O)N2Cc3cnc(CC(C)C)nc3C2)c1C", "reported.measurement": "27.9%"}
{"compound": "O=C(O)c1ccc(CC2CCN(Cc3ccc(-c4cc[nH]n4)o3)C2)cc1 (configuration not stated)", "reported.measurement": "67.8%"}
{"compound": "Cn1cnc2c1C(COCc1ccccc1)N(Cc1ccccn1)CC2 (configuration not stated)", "reported.measurement": "18.5%"}
{"compound": "CCc1ncc2c(n1)CN(C(=O)c1c(C)[nH]c3c1C(=O)CCC3)C2", "reported.measurement": "61%"}
{"compound": "Cc1cc(C(=O)N2CCCC2c2noc(C(C)C)n2)c(C)o1 (configuration not stated)", "reported.measurement": "4.52%"}
{"compound": "O=C(C1CCC1)N1CCC2(CCCN2CC2CC2)CC1", "reported.measurement": "22.3%"}
{"compound": "Cn1cc(-c2cc(C(F)F)n3nc(CCC(=O)O)nc3n2)cn1", "reported.measurement": "-24.1%"}
{"compound": "Cc1nn(CCO)c(C)c1CNCc1cccnc1N(C)C", "reported.measurement": "19.2%"}
{"compound": "CCc1ncc2c(n1)CN(C(=O)CC(C)NC(C)=O)C2 (configuration not stated)", "reported.measurement": "51.2%"}
{"compound": "CCc1ncc2c(n1)CN(C(=O)CNC(=O)C(C)C)C2", "reported.measurement": "10.3%"}
{"compound": "CCC1CN(CCCNS(C)(=O)=O)c2ccccc2O1 (configuration not stated)", "reported.measurement": "50.1%"}
{"compound": "CNC1CCC2(CC1)CNC(=O)c1cc(C)ccc1O2 (configuration not stated)", "reported.measurement": "-16.5%"}
{"compound": "O=C(Cn1c(=O)oc2ccccc21)N1Cc2cncnc2C1", "reported.measurement": "15.4%"}
{"compound": "CC(=O)CSc1nc2c(cnn2CCO)c(=O)[nH]1", "reported.measurement": "-8.41%"}
{"compound": "CCc1ncc2c(n1)CN(C(=O)c1c(C)[nH]c(C(C)=O)c1C)C2", "reported.measurement": "39.6%"}
{"compound": "CC(=O)NCC(=O)N1Cc2cnc(CC(C)C)nc2C1", "reported.measurement": "60.3%"}
{"compound": "CCN(Cc1ccc2c(c1)OCO2)c1ncc(S(N)(=O)=O)s1", "reported.measurement": "27.5%"}
{"compound": "CN(c1ncc(S(N)(=O)=O)s1)C1CCC1", "reported.measurement": "52.2%"}
{"compound": "O=C(O)c1ccccc1C1CCN(Cc2ccc(-c3cc[nH]n3)o2)C1 (configuration not stated)", "reported.measurement": "9.16%"}
{"compound": "CCC1CN(CCCO)c2ccccc2O1 (configuration not stated)", "reported.measurement": "29.8%"}
{"compound": "CC(C)Cc1ncc2c(n1)CN(C(=O)Cn1c(=O)oc3ccccc31)C2", "reported.measurement": "54.5%"}
{"compound": "O=C(NCc1ccco1)[C@H]1C[C@@H]2CCN(c3nncs3)C[C@H]2O1", "reported.measurement": "13.5%"}
{"compound": "NCc1cccc(NC(=O)CCN2CCOCC2)c1", "reported.measurement": "-5.1%"}
{"compound": "COC(=O)C(c1ccccc1)N(C)C(=O)c1ccnc(C)n1 (configuration not stated)", "reported.measurement": "23.7%"}
{"compound": "COc1ccc(CN(C)c2ncc(S(N)(=O)=O)s2)c(OC)c1", "reported.measurement": "-28.2%"}
{"compound": "CC(=O)NC(C)C1=CCCN(Cc2ccc(C(=O)O)cc2)C1 (configuration not stated)", "reported.measurement": "37.2%"}
{"compound": "Cc1cnn(CCNCc2csc(-c3ccc(C(N)=O)cc3)n2)c1", "reported.measurement": "43.6%"}
{"compound": "Cc1cc(C)n(-c2cncc(NCCNC(=O)c3cccnc3)n2)n1", "reported.measurement": "31.9%"}
{"compound": "CC(C)N(C)S(=O)(=O)c1ccc2c(c1)CCN(C(=O)c1cscn1)C2", "reported.measurement": "65.2%"}
{"compound": "CCn1cc(-c2cc(C(F)F)n3nc(CCC(=O)O)nc3n2)cn1", "reported.measurement": "33.7%"}
{"compound": "CNC(=O)c1cn[nH]c1C1CCN(Cc2sccc2C)C1 (configuration not stated)", "reported.measurement": "-14.1%"}

----------
System: Plasmodium berghei
Experiment: Screen against P. berghei liver stage (PbLuc), transformed with Luciferase, at 10uM
Format: functional, HepG2
Details: tested at 10 uM
About 8,600 (12%) of roughly 69,000 compounds showed an effect of 50% or more. The sample holds strong results, similar compounds and a random draw of the others, so the mix is not that of the screen.

{"compound": "CN(C)c1nc(NCCCN2CCc3ccccc32)ncc1F", "measure.unit": "%", "INHIBITION": 55.1}
{"compound": "O=C(c1cscn1)N1CC[C@H]2C[C@H](c3nnc(C4CC4)o3)O[C@@H]2C1", "measure.unit": "%", "INHIBITION": 30.3}
{"compound": "Cc1nc(C)n(CC2CCCN(CCCOc3ccc(F)cc3)C2)n1 (stereo unspecified)", "measure.unit": "%", "INHIBITION": 40.2}
{"compound": "O=C(c1cnn2c1OCCC2)N1CCC(Cc2ccccc2)CC1", "measure.unit": "%", "INHIBITION": 13.6}
{"compound": "Cc1cnc(NCCCN2CCc3ccccc32)nc1", "measure.unit": "%", "INHIBITION": -15.4}
{"compound": "Cc1ccnc(NCCCN2CCc3ccccc32)n1", "measure.unit": "%", "INHIBITION": 3.58}

----------
Test system: Plasmodium berghei
Test: Screen against P. berghei liver stage (PbLuc), transformed with Luciferase, at 10uM
Assay type: functional, HepG2
Conditions: tested at 10 uM
About 8,600 (12%) of roughly 69,000 compounds showed an effect of 50% or more. The full list was thinned out, with strong results kept by preference.
Label TRUE when INHIBITION >= 40%; otherwise FALSE.

{"compound": "CN(Cc1ccc(F)cc1)C(=O)CN1CCCC(Cn2cncn2)C1 (configuration not stated)", "answer.label": "FALSE"}
{"compound": "CC(C)(C)c1ncc(CNc2ccccc2SCCC(N)=O)s1", "answer.label": "TRUE"}
{"compound": "c1csc(CNc2ccccc2Cn2cncn2)c1", "answer.label": "FALSE"}
{"compound": "c1ccc(Cn2cc3c(n2)C(CNCc2ccco2)OCC3)nc1 (configuration not stated)", "answer.label": "FALSE"}
{"compound": "CC(C)(C)c1nc(CNc2ccccc2SCCC(N)=O)cs1", "answer.label": "TRUE"}
{"compound": "NC(=O)CSc1ccccc1NCc1nc(Cc2ccccc2)no1", "answer.label": "FALSE"}
{"compound": "CC(C)(C)c1ncc(CNc2ccccc2Cn2cncn2)s1", "answer.label": "TRUE"}
{"compound": "NC(=O)C(NC(=O)CCc1ccc(Cl)s1)c1ccccc1 (configuration not stated)", "answer.label": "FALSE"}
{"compound": "CN(Cc1cccc(F)c1)C(=O)CN1CCOC(Cn2cncn2)C1 (configuration not stated)", "answer.label": "FALSE"}
{"compound": "CN(Cc1ccccc1)C(=O)CN1CCCC(Cn2cncn2)C1 (configuration not stated)", "answer.label": "FALSE"}
{"compound": "CN(Cc1cccc(F)c1)C(=O)CN1CCCCC1Cn1cncn1 (configuration not stated)", "answer.label": "FALSE"}
